Every entry's value here was drawn from paper PMC12147176.

tgt: His6-p37AUF1(69-287) (human, UniProt Q14103-4 69-287)
Sequence (Q14103 other isoform, or with tags, fused parts or gaps): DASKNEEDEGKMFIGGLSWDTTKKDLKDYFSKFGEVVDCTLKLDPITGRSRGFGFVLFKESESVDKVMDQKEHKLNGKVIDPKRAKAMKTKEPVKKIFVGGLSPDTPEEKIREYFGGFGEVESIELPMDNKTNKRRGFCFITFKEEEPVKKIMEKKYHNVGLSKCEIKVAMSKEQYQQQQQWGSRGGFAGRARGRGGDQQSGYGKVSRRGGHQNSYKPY
assay_overview: fluorescence anisotropy; Anisotropy: 10 mM Tris-HCl pH 8.0, 100 mM KCl (50 mM for Fl-ARE2), 0.5 mM EDTA, 0.1 ug/ul acetylated BSA, 1 ug/ul heparin, 2 mM DTT, 25 C, RNA 0.2-0.4 nM; EMSA: same with 100 mM KCl, 10% glycerol, 1 nM RNA, on ice, UV crosslinked
condition_parameters: protein: recombinant; label: 3' fluorescein
pKd: −log10 of the molar value.
measure: pKd

- binder: "UUAUUUAUUUAUUUAG (ssRNA) [ARE15-G-Fl]"
  measured: 6.33
